Test system: LG0567-F671-PDC complex spheroids viability
Test Method Notes: Anticancer human tumor LG0567-F671-PDC patient-derived lung adenocarcinoma cell line growth inhibition [RAS]; active means viability on the fitted dose curve at most 10% of control; inactive means the rest
Condition Details: second compound 1 µM; first compound 1 µM
Classes used: t = active, f = inactive

Compound	Class Label
CC(=O)OC12COC1CC(O)C1(C)C(=O)C(O)C3=C(C)C(OC(=O)C(O)C(NC(=O)OC(C)(C)C)c4ccccc4)CC(O)(C(OC(=O)c4ccccc4)C21)C3(C)C (stereo not given) + C=CC(=O)N1CCN(c2nc(OCC3CCCN3C)nc3c(F)c(-c4nc(N)cc(C)c4C(F)(F)F)c(Cl)cc23)C(C)C1	f
CCN1CCN(Cc2ccc(Nc3ncc(F)c(-c4cc(F)c5nc(C)n(C(C)C)c5c4)n3)nc2)CC1 + C=CC(=O)N1CCN(c2nc(OCC3CCCN3C)nc3c(F)c(-c4nc(N)cc(C)c4C(F)(F)F)c(Cl)cc23)C(C)C1	f
CC(C)NCC(C(=O)N1CCN(c2ncnc3c2C(C)CC3O)CC1)c1ccc(Cl)cc1 (stereo not given) + C=CC(=O)N1CCN(c2nc(OCC3CCCN3C)nc3c(F)c(-c4nc(N)cc(C)c4C(F)(F)F)c(Cl)cc23)C(C)C1	f
C=CC(=O)Nc1cc(Nc2nccc(-c3cn(C)c4ccccc34)n2)c(OC)cc1N(C)CCN(C)C + C#Cc1c(F)ccc2cc(O)cc(-c3ncc4c(N5CC6CCC(C5)N6)nc(OCC56CCCN5CC(F)C6)nc4c3F)c12	t
CC(Nc1ccc2c(c1)OCCn1cc(N3C(=O)OCC3C(F)F)nc1-2)C(N)=O (stereo not given) + C=CC(=O)N1CCN(c2nc(OCC3CCCN3C)nc3c(F)c(-c4nc(N)cc(C)c4C(F)(F)F)c(Cl)cc23)C(C)C1	t

* * *

Test system: LG0567-F671-PDC complex spheroids viability
Test Method Notes: Anticancer human tumor LG0567-F671-PDC cell line growth inhibition [RAS];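 further: spheroids exposed to compound for seven days before readout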;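 on pIC50: luminescence signal used as a proxy for viable cells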
Condition Details: curve of first compound; second compound 0.000949 µM
pIC50: −log10 of the molar value.
Parameter pIC50: see the listing below.

Compound	pIC50
Nc1ccn(C2OC(CO)C(O)C2(F)F)c(=O)n1 (centres undefined) + CCn1c(-c2cc(N3CCN(C)CC3)cnc2C(C)OC)c2c3cc(ccc31)-c1csc(n1)CC(NC(=O)C1CC1C)C(=O)N1CCCC(N1)C(=O)OCC(C)(C)C2	> 8.50
CC(Nc1ccc2c(c1)OCCn1cc(N3C(=O)OCC3C(F)F)nc1-2)C(N)=O (centres undefined) + CCn1c(-c2cccnc2C(C)OC)c2c3cc(ccc31)N1CCOC(CC(NC(=O)C(C(C)C)N(C)C(=O)C3(F)CCN(C(=O)C#CC(C)(C)N(C)C)CC3)C(=O)N3CCCC(N3)C(=O)OCC(C)(C)C2)C1	> 7.50
C[C@@H](NC(=O)c1ncnc(N)c1Cl)c1ncc(C(=O)Nc2cc(C(F)(F)F)c(Cl)cn2)s1 + CCn1c(-c2cccnc2C(C)OC)c2c3cc(ccc31)N1CCOC(CC(NC(=O)C(C(C)C)N(C)C(=O)C3(F)CCN(C(=O)C#CC(C)(C)N(C)C)CC3)C(=O)N3CCCC(N3)C(=O)OCC(C)(C)C2)C1	> 7.50
CC(=O)OC12COC1CC(O)C1(C)C(=O)C(O)C3=C(C)C(OC(=O)C(O)C(NC(=O)OC(C)(C)C)c4ccccc4)CC(O)(C(OC(=O)c4ccccc4)C21)C3(C)C (centres undefined) + CCn1c(-c2cccnc2C(C)OC)c2c3cc(ccc31)N1CCOC(CC(NC(=O)C(C(C)C)N(C)C(=O)C3(F)CCN(C(=O)C#CC(C)(C)N(C)C)CC3)C(=O)N3CCCC(N3)C(=O)OCC(C)(C)C2)C1	> 7.50

* * *

Tested on: LG0567-F671-PDC complex spheroids viability
Test Method Notes: Anticancer human tumor LG0567-F671-PDC cell line growth inhibition [RAS];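 further: spheroids exposed to compound for seven days before readout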
Condition Details: second compound 0.003 µM; first compound 0.1 µM; stronger effect = lower value
Recorded viability, T/C values for a group of molecules are listed next.
Readout Name: viability, T/C (%)

Molecule	Number
CC(=O)OC12COC1CC(O)C1(C)C(=O)C(O)C3=C(C)C(OC(=O)C(O)C(NC(=O)OC(C)(C)C)c4ccccc4)CC(O)(C(OC(=O)c4ccccc4)C21)C3(C)C (stereo not given) + CCn1c(-c2cccnc2C(C)OC)c2c3cc(ccc31)N1CCOC(CC(NC(=O)C(C(C)C)N(C)C(=O)C3(F)CCN(C(=O)C#CC(C)(C)N(C)C)CC3)C(=O)N3CCCC(N3)C(=O)OCC(C)(C)C2)C1	11.5
Nc1ccn(C2OC(CO)C(O)C2(F)F)c(=O)n1 (stereo not given) + CCn1c(-c2cccnc2C(C)OC)c2c3cc(ccc31)N1CCOC(CC(NC(=O)C(C(C)C)N(C)C(=O)C3(F)CCN(C(=O)C#CC(C)(C)N(C)C)CC3)C(=O)N3CCCC(N3)C(=O)OCC(C)(C)C2)C1	14.8
C=CC(=O)Nc1cc(Nc2nccc(-c3cn(C)c4ccccc34)n2)c(OC)cc1N(C)CCN(C)C + CCn1c(-c2cccnc2C(C)OC)c2c3cc(ccc31)N1CCOC(CC(NC(=O)C(C(C)C)N(C)C(=O)C3(F)CCN(C(=O)C#CC(C)(C)N(C)C)CC3)C(=O)N3CCCC(N3)C(=O)OCC(C)(C)C2)C1	9.78
C[C@@H](NC(=O)c1ncnc(N)c1Cl)c1ncc(C(=O)Nc2cc(C(F)(F)F)c(Cl)cn2)s1 + CCn1c(-c2cc(N3CCN(C)CC3)cnc2C(C)OC)c2c3cc(ccc31)-c1csc(n1)CC(NC(=O)C1CC1C)C(=O)N1CCCC(N1)C(=O)OCC(C)(C)C2	18.3
CCN1CCN(Cc2ccc(Nc3ncc(F)c(-c4cc(F)c5nc(C)n(C(C)C)c5c4)n3)nc2)CC1 + CCn1c(-c2cccnc2C(C)OC)c2c3cc(ccc31)N1CCOC(CC(NC(=O)C(C(C)C)N(C)C(=O)C3(F)CCN(C(=O)C#CC(C)(C)N(C)C)CC3)C(=O)N3CCCC(N3)C(=O)OCC(C)(C)C2)C1	15.9

* * *

System: LG0567-F671-PDC complex spheroids viability
Test Method Notes: Anticancer human tumor LG0567-F671-PDC cell line growth inhibition [RAS];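 further: spheroids exposed to compound for seven days before readout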
Condition Details: second compound 0.000949 µM; first compound 0.1 µM; stronger effect = lower value

Compound	viability, T/C [%]
C=CC(=O)Nc1cc(Nc2nccc(-c3cn(C)c4ccccc34)n2)c(OC)cc1N(C)CCN(C)C + CCn1c(-c2cccnc2C(C)OC)c2c3cc(ccc31)N1CCOC(CC(NC(=O)C(C(C)C)N(C)C(=O)C3(F)CCN(C(=O)C#CC(C)(C)N(C)C)CC3)C(=O)N3CCCC(N3)C(=O)OCC(C)(C)C2)C1	9.48
Cc1nc(N2CCC3(CC2)COC(C)C3N)c(CO)nc1Sc1ccnc(N)c1Cl (configuration not stated) + CCn1c(-c2cc(N3CCN(C)CC3)cnc2C(C)OC)c2c3cc(ccc31)-c1csc(n1)CC(NC(=O)C1CC1C)C(=O)N1CCCC(N1)C(=O)OCC(C)(C)C2	9.61

* * *

Property: viability, T/C; scope: individual compounds
Test system: LG0567-F671-PDC complex spheroids viability
Test Method Notes: Anticancer human tumor LG0567-F671-PDC cell line growth inhibition [RAS];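 further: spheroids exposed to compound for seven days before readout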
Condition Details: second compound 0.003 µM; first compound 1 µM; stronger effect = lower value

Compound	viability, T/C, %
C=CC(=O)N1CCN(c2nc(OCC3CCCN3C)nc3c(F)c(-c4nc(N)cc(C)c4C(F)(F)F)c(Cl)cc23)C(C)C1 (centres undefined) + CCn1c(-c2cc(N3CCN(C)CC3)cnc2C(C)OC)c2c3cc(ccc31)-c1csc(n1)CC(NC(=O)C1CC1C)C(=O)N1CCCC(N1)C(=O)OCC(C)(C)C2	6.72
CC(=O)OC12COC1CC(O)C1(C)C(=O)C(O)C3=C(C)C(OC(=O)C(O)C(NC(=O)OC(C)(C)C)c4ccccc4)CC(O)(C(OC(=O)c4ccccc4)C21)C3(C)C (centres undefined) + CCn1c(-c2cc(N3CCN(C)CC3)cnc2C(C)OC)c2c3cc(ccc31)-c1csc(n1)CC(NC(=O)C1CC1C)C(=O)N1CCCC(N1)C(=O)OCC(C)(C)C2	8.18
NC1c2ccccc2OC12CCN(c1cnc3c(N4CCCc5ncccc54)n[nH]c3n1)CC2 (centres undefined) + CCn1c(-c2cccnc2C(C)OC)c2c3cc(ccc31)N1CCOC(CC(NC(=O)C(C(C)C)N(C)C(=O)C3(F)CCN(C(=O)C#CC(C)(C)N(C)C)CC3)C(=O)N3CCCC(N3)C(=O)OCC(C)(C)C2)C1	2.79
Nc1ccn(C2OC(CO)C(O)C2(F)F)c(=O)n1 (centres undefined) + CCn1c(-c2cccnc2C(C)OC)c2c3cc(ccc31)N1CCOC(CC(NC(=O)C(C(C)C)N(C)C(=O)C3(F)CCN(C(=O)C#CC(C)(C)N(C)C)CC3)C(=O)N3CCCC(N3)C(=O)OCC(C)(C)C2)C1	11.7
CCC(CC)c1cc(NC2CCC(N)C2)n2nccc2n1 (centres undefined) + CCn1c(-c2cccnc2C(C)OC)c2c3cc(ccc31)N1CCOC(CC(NC(=O)C(C(C)C)N(C)C(=O)C3(F)CCN(C(=O)C#CC(C)(C)N(C)C)CC3)C(=O)N3CCCC(N3)C(=O)OCC(C)(C)C2)C1	13.5
CCC(CC)c1cc(NC2CCC(N)C2)n2nccc2n1 (centres undefined) + CCn1c(-c2cc(N3CCN(C)CC3)cnc2C(C)OC)c2c3cc(ccc31)-c1csc(n1)CC(NC(=O)C1CC1C)C(=O)N1CCCC(N1)C(=O)OCC(C)(C)C2	9.94
CC(=O)OC12COC1CC(O)C1(C)C(=O)C(O)C3=C(C)C(OC(=O)C(O)C(NC(=O)OC(C)(C)C)c4ccccc4)CC(O)(C(OC(=O)c4ccccc4)C21)C3(C)C (centres undefined) + CCn1c(-c2cccnc2C(C)OC)c2c3cc(ccc31)N1CCOC(CC(NC(=O)C(C(C)C)N(C)C(=O)C3(F)CCN(C(=O)C#CC(C)(C)N(C)C)CC3)C(=O)N3CCCC(N3)C(=O)OCC(C)(C)C2)C1	11.5
C[C@@H](NC(=O)c1ncnc(N)c1Cl)c1ncc(C(=O)Nc2cc(C(F)(F)F)c(Cl)cn2)s1 + CCn1c(-c2cccnc2C(C)OC)c2c3cc(ccc31)N1CCOC(CC(NC(=O)C(C(C)C)N(C)C(=O)C3(F)CCN(C(=O)C#CC(C)(C)N(C)C)CC3)C(=O)N3CCCC(N3)C(=O)OCC(C)(C)C2)C1	21
CC(Nc1ccc2c(c1)OCCn1cc(N3C(=O)OCC3C(F)F)nc1-2)C(N)=O (centres undefined) + CCn1c(-c2cccnc2C(C)OC)c2c3cc(ccc31)N1CCOC(CC(NC(=O)C(C(C)C)N(C)C(=O)C3(F)CCN(C(=O)C#CC(C)(C)N(C)C)CC3)C(=O)N3CCCC(N3)C(=O)OCC(C)(C)C2)C1	6.15
Cc1nc(N2CCC3(CC2)COC(C)C3N)c(CO)nc1Sc1ccnc(N)c1Cl (centres undefined) + CCn1c(-c2cc(N3CCN(C)CC3)cnc2C(C)OC)c2c3cc(ccc31)-c1csc(n1)CC(NC(=O)C1CC1C)C(=O)N1CCCC(N1)C(=O)OCC(C)(C)C2	2.04
CC1(O)CCCC1n1c(=O)c(C(F)F)cc2cnc(NC3CCN(S(C)(=O)=O)CC3)nc21 (centres undefined) + CCn1c(-c2cccnc2C(C)OC)c2c3cc(ccc31)N1CCOC(CC(NC(=O)C(C(C)C)N(C)C(=O)C3(F)CCN(C(=O)C#CC(C)(C)N(C)C)CC3)C(=O)N3CCCC(N3)C(=O)OCC(C)(C)C2)C1	21.3
O=C(c1ccc(F)c(F)c1Nc1ccc(I)cc1F)N1CC(O)([C@@H]2CCCCN2)C1 + CCn1c(-c2cccnc2C(C)OC)c2c3cc(ccc31)N1CCOC(CC(NC(=O)C(C(C)C)N(C)C(=O)C3(F)CCN(C(=O)C#CC(C)(C)N(C)C)CC3)C(=O)N3CCCC(N3)C(=O)OCC(C)(C)C2)C1	1.31
CC(C)NCC(C(=O)N1CCN(c2ncnc3c2C(C)CC3O)CC1)c1ccc(Cl)cc1 (centres undefined) + CCn1c(-c2cccnc2C(C)OC)c2c3cc(ccc31)N1CCOC(CC(NC(=O)C(C(C)C)N(C)C(=O)C3(F)CCN(C(=O)C#CC(C)(C)N(C)C)CC3)C(=O)N3CCCC(N3)C(=O)OCC(C)(C)C2)C1	10.8
CCN1CCN(Cc2ccc(Nc3ncc(F)c(-c4cc(F)c5nc(C)n(C(C)C)c5c4)n3)nc2)CC1 + CCn1c(-c2cccnc2C(C)OC)c2c3cc(ccc31)N1CCOC(CC(NC(=O)C(C(C)C)N(C)C(=O)C3(F)CCN(C(=O)C#CC(C)(C)N(C)C)CC3)C(=O)N3CCCC(N3)C(=O)OCC(C)(C)C2)C1	19.9

These data points were gathered from PubChem BioAssay AID2060889.
